- Target Desc: CRAC channels (Homo sapiens (Human), UniProt Q96D31)
- Sequence (Q96D31 whole entry): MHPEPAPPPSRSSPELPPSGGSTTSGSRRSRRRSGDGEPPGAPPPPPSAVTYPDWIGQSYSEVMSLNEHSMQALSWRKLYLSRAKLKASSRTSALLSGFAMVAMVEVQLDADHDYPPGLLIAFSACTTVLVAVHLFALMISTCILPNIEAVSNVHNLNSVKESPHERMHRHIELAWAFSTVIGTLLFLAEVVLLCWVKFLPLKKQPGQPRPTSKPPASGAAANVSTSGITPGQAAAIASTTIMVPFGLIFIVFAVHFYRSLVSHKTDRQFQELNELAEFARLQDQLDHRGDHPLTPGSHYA
- Assay Overview: In-vitro CRAC channel inhibition assay in Jurkat cells (thapsigargin-induced calcium influx)
- Type: cell-based
- Experimental: Inhibition of CRAC channels was determined following thapsigargin (Sigma, Cat # T9033) induced endoplasmic calcium release in Jurkat cells. […] Fluorescence was monitored over […] on a plate reader (BMG Labtech., Germany) with excitation at 485 nm and an emission wavelength at 520 nm. Data were analyzed using GraphPad Prism. IC50 for each compound was determined based on the percent inhibition of thapsigargin-induced calcium influx into cells.
Experimental Endpoint: IC50 (µM)
Answer in µM, number only, no unit symbol.

Consider the molecule shown here: Cc1oncc1C(=O)Nc1ccc(-n2nc(C3CC3)cc2C2CC2)cc1 What is its recorded IC50?
0.256

----------
- Target Desc: CRAC channels (Homo sapiens (Human))
- Assay Overview: In-vitro CRAC channel inhibition assay in Jurkat cells (thapsigargin-induced calcium influx)
- Format: cell-based
- Condition Parameters: Jurkat cells, thapsigargin-induced calcium influx
Categories are defined by ranges of IC50, namely one: < 0.05 µM; two: ≥ 0.05 µM and < 0.1 µM; three: ≥ 0.1 µM

Field: example entries. Status: answers known.
Compound	Target Desc	Qualitative Label
O=C(Nc1ccc(-n2nc(C(F)(F)F)cc2C2CC2)cc1)c1ccncc1F	CRAC channels (Homo sapiens (Human))	one
Cc1ncncc1C(=O)Nc1ccc(-n2nc(C(F)(F)F)cc2C2CC2)c(F)c1	CRAC channels (Homo sapiens (Human))	two
O=C(Nc1ccc(-n2nc(C(F)(F)F)cc2C2CC2)nc1)c1ccccc1F	CRAC channels (Homo sapiens (Human))	two
Cc1ncsc1NC(=O)c1ccc(-n2nc(C(F)(F)F)cc2C2CC2)cc1	CRAC channels (Homo sapiens (Human))	one
O=C(Nc1ccc(-n2nc(C(F)(F)F)cc2C2CC2)nc1)c1ccncc1F	CRAC channels (Homo sapiens (Human))	one

Returns: class label. Input: Cc1nnsc1C(=O)Nc1ccc(-n2nc(C(F)(F)F)cc2C2CC2)c(F)c1
one

Could you tell me which band O=C(Nc1ccc(-n2nc(C3CC3)cc2C2CC2)cc1)c1ccncc1F belongs to?
three

For Cc1ccccc1C(=O)Nc1ccc(-n2nc(C(F)(F)F)cc2C2CC2)cc1 , which IC50 bin applies?
three

----------
- Target Desc: CRAC channels (Homo sapiens (Human))
- Assay Overview: In-vitro CRAC channel inhibition assay in Jurkat cells (thapsigargin-induced calcium influx)
- Assay type: cell-based
- Condition Parameters: Jurkat cells, thapsigargin-induced calcium influx
Experimental Endpoint: pIC50
Worth noting: pIC50 values are minus log10 of concentrations stated in mol/L.

// map O=C(Nc1ccc(-n2nc(C(F)(F)F)cc2C2CC2)nc1)c1cccc(F)c1F to recorded pIC50 (system: CRAC channels (Homo sapiens (Human)))
7.15

Return pIC50 measured with CRAC channels (Homo sapiens (Human)) given this molecule: O=C(Nc1c(F)cccc1F)c1ccc(-n2nc(C(F)(F)F)cc2C2CC2)nc1
7.14

Kindly state the measured pIC50 obtained for Cc1ncsc1C(=O)Nc1ccc(-n2nc(C3CC3)cc2C2CC2)cc1 with CRAC channels (Homo sapiens (Human)).
6.68

Param readout = pIC50; param system = CRAC channels (Homo sapiens (Human)); param query = Cc1nnsc1C(=O)Nc1ccc(-n2nc(C3CC3)cc2C2CC2)cc1 ; response: value
7.20

Form field - read-out: pIC50; system: CRAC channels (Homo sapiens (Human)); submitted item: O=C(Nc1ccc(-n2nc(C3CC3)cc2C2CC2)cc1)c1c(Cl)cncc1Cl
6.89
